Quick reference for IC50 IL-2 among some compounds
Tested on: IL-2 production of mouse T cell strain EL-4 (TPA)
experimental.details: Suppressive effect on the cytokine production of mouse T cell strain EL-4: IL-2
Type: cell-based
run.conditions: EL-4, TPA 10 ng/ml, 24 hours, ELISA
measurement.name: IC50 IL-2

COc1cc(-c2ccc(O)cc2)c(OC)c(C)c1-c1ccc(OCCC=C(C)C)c(O)c1
>1 µg/mL
COc1cc(-c2ccc(O)cc2)c(OC)c(O)c1-c1ccc(OCc2ccc(C)cc2C)c(O)c1
>0.5 µg/mL
COc1cc(-c2ccc(O)cc2)c(OC)c(O)c1-c1ccc(OCc2cc(C)cc(C)c2)c(O)c1
>0.2 µg/mL
COc1cc(-c2cccc(C(F)(F)F)c2)c(OC)c(O)c1-c1ccc(OCCC=C(C)C)c(O)c1
>1 µg/mL
COc1cc(-c2ccc(OS(C)(=O)=O)cc2)c(OC)c(C)c1-c1ccc(OCCC=C(C)C)c(OS(C)(=O)=O)c1
>1 µg/mL
COc1cc(-c2ccc(OS(C)(=O)=O)cc2)c(OC)c(C)c1-c1ccc(OCc2ccc(C)cc2)c(OS(C)(=O)=O)c1
>1 µg/mL
COc1cc(-c2ccc(C)cc2)c(OC)c(O)c1-c1ccc(OCCC=C(C)C)c(O)c1
>1 µg/mL

Data origin, for the record: patent US7101915B1
